# Tested on: A549 (human lung cancer cells)
# protocol summary: MTT cancer cell growth inhibition
# Assay type: cell-based
# reported conditions: Homo sapiens, A549, 72 h, MTT, 72 hours incubation; read-out: GI50 A54
readout kind: GI50 (nM)
Output spec: scalar in nM, unitless text.

Q: Given the compound C/C=C1\NC(=O)c2cc(F)cc(n2)CNC(=O)C[C@@H](/C=C/CCSC(C)=O)OC(=O)[C@H](C(C)C)NC1=O , what is its reported GI50?
Result: 40

Q: Try this compound too: C/C=C1\NC(=O)c2ccc(F)c(n2)CNC(=O)C[C@@H](/C=C/CCS)OC(=O)[C@H](C(C)C)NC1=O
Result: 40

Q: Try this compound too: C/C=C1\NC(=O)c2cc(F)cc(n2)CNC(=O)C[C@@H](/C=C/CCSC(C)=O)OC(=O)[C@H](Cc2cccc3ccccc23)NC1=O
Result: 50

Q: Try this compound too: C/C=C1\NC(=O)c2cc(F)cc(n2)CNC(=O)C[C@@H](/C=C/CCSC(=O)CCCCCCC)OC(=O)[C@H](C(C)C)NC1=O
Result: 70

Q: Try this compound too: C/C=C1\NC(=O)c2nc(ccc2F)CNC(=O)C[C@@H](/C=C/CCSC(C)=O)OC(=O)[C@H](C)NC1=O
Result: 50

Q: Try this compound too: C/C=C1\NC(=O)c2nc(ccc2F)CNC(=O)C[C@@H](/C=C/CCS)OC(=O)[C@H](CCCCNC(=O)OCC2c3ccccc3-c3ccccc32)NC1=O
Result: 50

Ref: patent US10065990B2
